System: GM3 expression on the cell surface, B16 mouse melanoma cells
Test: cell based phenotypic assay, cell surface GM3 by antibody mediated immunofluorescence, B16 (GM3 B16 IC50)
Conditions: Mus musculus, B16 mouse melanoma cells; 50% inhibition of GM3 expression on the cell surface; read-out: GM3 B16 IC50
// reported pIC50 per item
Just the number, please; pIC50 means minus log10 of the concentration in mol/L.

CC(C)(C)CCS(=O)(=O)c1ccc(-c2ccc(C(C)(C)NC(=O)NC3(C)CCN4CCC3CC4)cc2)cc1 (centres unmarked) [Example 248] ... 8.16
COCCOc1ccc(-c2ccc(C(C)(C)NC(=O)NC3(C)CCN4CCC3CC4)cc2)cc1 (centres unmarked) [Example 160] ... 8.72
O=C(OC1CCN2CCC1CC2)C1CCN(c2nccc(-c3ccc(F)cc3)n2)CC1 (centres unmarked) [Example 110] ... 6.28
CC1(NC(=O)C2(F)CCN(c3ncnc(Oc4ccc(F)cc4)n3)CC2)CCN2CCC1CC2 (centres unmarked) [Example 117] ... 7.05
C[C@@H]1CN(C(=O)NC2(C)CCN3CCC2CC3)C[C@H](C)N1c1nccc(-c2ccccc2)n1 (relative stereo) [Example 147] ... 7.02

Ask: # get_value(readout='pIC50', item= COCc1ccc(-c2ccnc(N3CCN(C(=O)NC4(C)CCN5CCC4CC5)CC3C(F)(F)F)n2)cc1 (centres unmarked) [Example 149] )
Reply: 6.55

Ask: # get_value(readout='pIC50', item= COCCOc1cccc(-c2ccc(C(C)(C)NC(=O)OC3CCN4CCC3CC4)cc2)c1 (centres unmarked) [Example 168] )
Reply: 7.10

Ask: # get_value(readout='pIC50', item= CC1(NC(=O)C2(F)CCN(c3nccc(OCc4ccc(F)cc4)n3)CC2)CN2CCC1CC2 (centres unmarked) [Example 125] )
Reply: 7.75

Ask: # get_value(readout='pIC50', item= CCC1(NC(=O)NC2(c3ccc(-c4ccc(OCCOC)cc4)cc3)CC2)CN2CCC1CC2 (centres unmarked) [Example 164] )
Reply: 8.60

Ask: # get_value(readout='pIC50', item= COCCOc1ccc(-c2ccnc(N3CCC(C(=O)NC4(C)CCN5CCC4CC5)CC3)n2)cc1 (centres unmarked) [Example 66] )
Reply: 7.16

Ask: # get_value(readout='pIC50', item= CC1(NC(=O)C2CCN(c3cccc(-c4ccccc4)c3)CC2)CCN2CCC1CC2 (centres unmarked) [Example 36] )
Reply: 6.87

Ask: # get_value(readout='pIC50', item= CNC(=O)c1cccc(Oc2cccc(C(C)(C)NC(=O)NC3(C)CCN4CCC3CC4)c2)c1 (centres unmarked) [Example 297] )
Reply: 5.86

Ask: # get_value(readout='pIC50', item= CC1CN(C(=O)NC2(C)CCN3CCC2CC3)CCN1c1nccc(-c2ccc(F)cc2)n1 (centres unmarked) [Example 145] )
Reply: 7.12

Ask: # get_value(readout='pIC50', item= COCCOc1ccc(Cc2cnc(N3CCC(F)(C(=O)NC4(C)CN5CCC4CC5)CC3)nc2)cc1 (centres unmarked) [Example 136] )
Reply: 7.60

* * *

System: GM3 expression on the cell surface, B16 mouse melanoma cells
Assay: cell based phenotypic assay, cell surface GM3 by antibody mediated immunofluorescence, B16 (GM3 B16 IC50)
Conditions: Mus musculus, B16 mouse melanoma cells; 50% inhibition of GM3 expression on the cell surface; read-out: GM3 B16 IC50
Readout type: IC50 (nM)
Reply with just the number (in nM).

Completed entries (count: 5):
CCC1(NC(=O)NC(C)(C)c2ccc(-c3ccc(CCO)cc3)cc2)CN2CCC1CC2 (stereo not drawn) [Example 225] ... 229
COCCOc1ccc(-c2ccnc(N3CCC(F)(C(=O)NC4(C)CCN5CCC4CC5)CC3)n2)cc1 (stereo not drawn) [Example 93] ... 43.9
COCCCOc1ccc(-c2ccc(C3(NC(=O)NC4(C)CN5CCC4CC5)CC3)cc2)cc1 (stereo not drawn) [Example 176] ... 22
CC(C)(C)CCS(=O)(=O)c1ccc(C#CC(C)(C)NC(=O)NC2(C)CN3CCC2CC3)cc1 (stereo not drawn) [Example 337] ... 94.1
CC(C)(C)CCS(=O)(=O)c1ccc(C#CC(C)(C)NC(=O)OC2CCN3CCC2CC3)cc1 (stereo not drawn) [Example 335] ... 193

Ask: # get_value(readout='IC50', item= O=C(N1CCN(c2ccc(-c3ccccc3)cc2)CC1)N1CCN2CCC1CC2 [Example 5] )
Reply: 2000

Ask: # get_value(readout='IC50', item= CC1(NC(=O)N2CCN(c3cccc(-c4ccccc4)c3)CC2)CN2CCC1CC2 (stereo not drawn) [Example 15] )
Reply: 368

Ask: # get_value(readout='IC50', item= CN(C)C(=O)c1cccc(Oc2cccc(C(C)(C)NC(=O)OC3CCN4CCC3CC4)c2)c1 (stereo not drawn) [Example 288] )
Reply: 1180

Ask: # get_value(readout='IC50', item= COCCOc1ccc(-c2nc(C(C)(C)NC(=O)OC3CCN4CCC3CC4)cs2)cc1 (stereo not drawn) [Example 344] )
Reply: 56.4

Ask: # get_value(readout='IC50', item= CC1(NC(=O)N2CCC(c3cccc(-c4ccccc4)c3)CC2)CCN2CCC1CC2 (stereo not drawn) [Example 52] )
Reply: 1060

Ask: # get_value(readout='IC50', item= CC1(NC(=O)C2CCN(c3ncc(F)c(-c4ccc(F)cc4)n3)CC2)CN2CCC1CC2 (stereo not drawn) [Example 54] )
Reply: 106
